Reported values of pIC50 for individual entries
Target: muscarinic acetylcholine receptors
Assay: inhibition of specific binding of ^3 H-Oxotremorine-M (^3 H-Oxo)
Conditions: ^3 H-Oxotremorine 1.0 nM, rat cortex, 30 min. at 25° C.
pIC50: −log10 of the molar value.
QUANTITY_NAME: pIC50

compound=CCCCSc1nsnc1OC1CNC1 target_or_system="muscarinic acetylcholine receptors" quantity_name=pIC50 reported_measurement=7.60
compound="Fc1ccc(CSc2nsnc2OC2CN3CCC2CC3)cc1 (racemic)" target_or_system="muscarinic acetylcholine receptors" quantity_name=pIC50 reported_measurement=7.85
compound="CCCCCOc1nsnc1OC1CN2CCC1CC2 (racemic)" target_or_system="muscarinic acetylcholine receptors" quantity_name=pIC50 reported_measurement=7.96
compound="C(#Cc1ccccc1)COc1nsnc1OC1CN2CCC1CC2 (racemic)" target_or_system="muscarinic acetylcholine receptors" quantity_name=pIC50 reported_measurement=8.02
compound=CCCCSc1nsnc1O[C@@H]1CN2CCC[C@H]1C2 target_or_system="muscarinic acetylcholine receptors" quantity_name=pIC50 reported_measurement=8.13
compound="Fc1ccc(OCCOc2nsnc2OC2CN3CCC2CC3)cc1 (racemic)" target_or_system="muscarinic acetylcholine receptors" quantity_name=pIC50 reported_measurement=7.92
compound="c1cncc(CCCSc2nsnc2OC2CN3CCC2CC3)c1 (racemic)" target_or_system="muscarinic acetylcholine receptors" quantity_name=pIC50 reported_measurement=8.47
compound="CCCOc1nsnc1OC1CN2CCC1CC2 (racemic)" target_or_system="muscarinic acetylcholine receptors" quantity_name=pIC50 reported_measurement=7.97
compound="CCCCSc1nsnc1O[C@H]1CN2CCC[C@@H]1C2 (relative stereo) [Compound 70]" target_or_system="muscarinic acetylcholine receptors" quantity_name=pIC50 reported_measurement=8.89

----------
Biological target: muscarinic acetylcholine receptors
Assay: inhibition of specific binding of ^3 H-Oxotremorine-M (^3 H-Oxo)
Details: ^3 H-Oxotremorine 1.0 nM, rat cortex, 30 min. at 25° C.
Protocol: The pharmacological properties of the compounds of the invention can be illustrated by determining their capability to inhibit the specific binding of ^3 H-Oxotremorine-M (^3 H-Oxo). Birdsdall N. J. M., Hulme E. C., and Burgen A. S. V. (1980). […] ^3 H-Oxo labels muscarinic receptor in the CNS (with a preference for agonist domains of the receptors). […] Using the present experimental conditions only the high and medium affinity sites are determined. […]
# label 1 = IC50 below 10 nM (exclusive); label 0 = IC50 at/above 10 nM

compound="CCCCCSc1nsnc1O[C@H]1CN2CCC[C@H]1C2 (relative stereo)" target_or_system="muscarinic acetylcholine receptors" cat="label 0"
compound="FCCCCOc1nsnc1O[C@@H]1CN2CCC[C@H]1C2 (relative stereo)" target_or_system="muscarinic acetylcholine receptors" cat="label 1"
compound="CC(C)(C)c1ccc(COc2nsnc2O[C@@H]2CN3CCC[C@H]2C3)cc1 (relative stereo)" target_or_system="muscarinic acetylcholine receptors" cat="label 0"
compound="ClCCCOc1nsnc1O[C@@H]1CN2CCC[C@H]1C2 (relative stereo)" target_or_system="muscarinic acetylcholine receptors" cat="label 1"
compound="ClCCCOc1nsnc1OC1CN2CCC1CC2 (racemic)" target_or_system="muscarinic acetylcholine receptors" cat="label 0"
compound="CCCCc1ccc(COc2nsnc2O[C@@H]2CN3CCC[C@H]2C3)cc1 (relative stereo)" target_or_system="muscarinic acetylcholine receptors" cat="label 0"
compound="FC(F)(F)CCCSc1nsnc1OC1CN2CCC1CC2 (racemic)" target_or_system="muscarinic acetylcholine receptors" cat="label 0"
compound="c1ccc(OCCSc2nsnc2O[C@@H]2CN3CCC[C@H]2C3)cc1 (relative stereo)" target_or_system="muscarinic acetylcholine receptors" cat="label 1"
compound="CCCCOc1nsnc1O[C@H]1CN2CC[C@H]1C2 (relative stereo)" target_or_system="muscarinic acetylcholine receptors" cat="label 0"
compound="Fc1ccc(CCCSc2nsnc2OC2CN3CCC2CC3)cc1 (racemic)" target_or_system="muscarinic acetylcholine receptors" cat="label 1"
compound="O=C1CCCn2cccc21 [Compound 139, 1-azabicyclo[4.3.0]nona-6,8-diene-5-one]" target_or_system="muscarinic acetylcholine receptors" cat="label 0"
compound="CCCCOc1nsnc1O[C@@H]1CN2CC[C@H]1C2 (relative stereo)" target_or_system="muscarinic acetylcholine receptors" cat="label 1"
compound="CCCCSc1nsnc1OC1CCNC1 (racemic)" target_or_system="muscarinic acetylcholine receptors" cat="label 0"
compound=CCCCOc1nsnc1O[C@@H]1CCC[C@@H]1N target_or_system="muscarinic acetylcholine receptors" cat="label 0"
compound="FC(F)(F)C(F)(F)COc1nsnc1O[C@@H]1CN2CCC[C@H]1C2 (relative stereo)" target_or_system="muscarinic acetylcholine receptors" cat="label 1"
compound="N#Cc1ccc(CSc2nsnc2O[C@H]2CN3CCC[C@@H]2C3)cc1 (relative stereo)" target_or_system="muscarinic acetylcholine receptors" cat="label 1"
compound="CC(C)=CCCOc1nsnc1O[C@@H]1CN2CCC[C@H]1C2 (relative stereo)" target_or_system="muscarinic acetylcholine receptors" cat="label 1"
